Tested on: FB
Experiment: Euclidean distance of Cell Painting phenotypic profile (signed KS, 77 features) to DMSO centroid (dimensionless distance); higher = stronger phenotypic change vs DMSO (phenoactivity)
Details: 48 h; 5 or 10 uM (library dependent)
Where a name gives a salt, the structure may show the parent alone.
Tag: Fulfilled if measured Euclidean distance is not below 1, Not fulfilled if it is.

INSERT INTO assay_data (molecule, label) VALUES
  ('CC(O)(CS(=O)(=O)c1ccc(F)cc1)C(=O)Nc1ccc(C#N)c(C(F)(F)F)c1 (stereo unspecified) [Bicalutamide]', 'Fulfilled'),
  ('Cc1cc(O)ccc1Cl', 'Not fulfilled'),
  ('CCN(CC)C(=O)c1ccc(C2=CC3(CCNCC3)Oc3cccc(O)c32)cc1', 'Not fulfilled'),
  ('N#Cc1ccc(N2CCC[C@@H]2[C@@H](O)C(F)(F)F)cc1C(F)(F)F', 'Fulfilled'),
  ('NC(=O)CN1CC(O)CC1=O (stereo unspecified)', 'Fulfilled'),
  ('O=c1c2ccccc2[se]n1-c1ccccc1', 'Fulfilled'),
  ('Cn1c(CCCC(=O)O)nc2cc(N(CCCl)CCCl)ccc21', 'Not fulfilled'),
  ('CN1CCc2cc3c(cc2C1C1OC(=O)c2c1ccc1c2OCO1)OCO3 (single isomer, unassigned; (+)) [(+)-Bicuculline]', 'Not fulfilled'),
  ('Fc1cc(F)c2c(c1)[C@H]1C=CC[C@H]1C(c1cccnc1)N2 (stereo partly specified) [Golgicide A]', 'Fulfilled'),
  ('Cc1ccc2c(c1)[C@]13CCCC[C@@H]1[C@H](C2)N(C)CC3 [Dimemorfan phosphate]', 'Fulfilled'),
  ('CN1C(=O)CCS(=O)(=O)C1c1ccc(Cl)cc1 (stereo unspecified)', 'Not fulfilled'),
  ('CN1[C@H]2C[C@H](OC(=O)[C@H](CO)c3ccccc3)C[C@@H]1[C@@H](O)C2 [Anisodamine Hydrobromide]', 'Fulfilled'),
  ('Nc1ccncc1', 'Not fulfilled'),
  ('Cc1cc(SCc2sc(-c3ccc(C(F)(F)F)c(F)c3)nc2C)ccc1OCC(=O)O', 'Fulfilled'),
  ('CNCC(O)c1ccc(O)cc1 (stereo unspecified) [Synephrine HCl]', 'Not fulfilled');
